All values here come from patent US9423396B2.

assay-remarks: Spectroscopic measurements (absorption, emission, quantum yield, extinction coefficient)
Type: physicochemical
settings: fluorescence emission maximum, BDNCA library
readout-name: Flu
Write the number on its own, no unit after it.

Asked: Look up Flu for this molecule: `CC1=CC(/C=C/c2cccs2)=[N+]2C1=C(c1ccc(NC(=O)CCl)cc1)c1cccn1[B-]2(F)F`
Given back: 594

Asked: GET /values?readout=Flu&item= `Cc1cc(/C=C/c2ccc(F)c(Oc3ccccc3)c2)n2c1C(c1ccc(NC(=O)CCl)cc1)=C1C=CC=[N+]1[B-]2(F)F`
Given back: 575

Asked: Can you share its Flu? I mean this molecule: `CSc1ccccc1/C=C/C1=[N+]2C(=C(c3ccc(NC(=O)CCl)cc3)c3cccn3[B-]2(F)F)C(C)=C1`
Given back: 586

Asked: Value lookup for Flu; key = `Cc1cc(/C=C/c2ccc3c(c2)OC(F)(F)O3)n2c1C(c1ccc(NC(=O)CCl)cc1)=C1C=CC=[N+]1[B-]2(F)F`
Given back: 575

----------
assay-remarks: Spectroscopic measurements (absorption, emission, quantum yield, extinction coefficient)
Type: physicochemical
settings: BDNCA library, fluorescence emission
readout-name: Flu
Answer with a number only.

Asked: # query: Flu of entry CC1=CC(/C=C/c2cn(C)c3ccccc23)=[N+]2C1=C(c1ccc(NC(=O)CCl)cc1)c1cccn1[B-]2(F)F [BDNCA-94]
Given back: 662

Asked: Bench note: what Flu did Cc1cc(/C=C/c2ccccc2OC(F)F)n2c1C(c1ccc(NC(=O)CCl)cc1)=C1C=CC=[N+]1[B-]2(F)F [BDNCA-240] show?
Given back: 573

Asked: Could you tell me which Flu is on file for CC1=CC(/C=C/c2c(C)c(C)c(C)c(C)c2C)=[N+]2C1=C(c1ccc(NC(=O)CCl)cc1)c1cccn1[B-]2(F)F [BDNCA-67] ?
Given back: 582

Asked: # get_value(readout='Flu', item= CC1=CC(/C=C/c2nccn2C)=[N+]2C1=C(c1ccc(NC(=O)CCl)cc1)c1cccn1[B-]2(F)F [BDNCA-72] )
Given back: 618

Asked: Report Flu for CC1=CC(/C=C/c2ccc(C(C)C)cc2)=[N+]2C1=C(c1ccc(NC(=O)CCl)cc1)c1cccn1[B-]2(F)F [BDNCA-19] please.
Given back: 580

Asked: I am curious: what Flu value has been reported for CC1=CC(/C=C/c2ccc(OCCCN(C)C)cc2)=[N+]2C1=C(c1ccc(NC(=O)CCl)cc1)c1cccn1[B-]2(F)F [BDNCA-163] ?
Given back: 595

Asked: Which Flu is listed for COc1cc(Cl)cc(/C=C/C2=[N+]3C(=C(c4ccc(NC(=O)CCl)cc4)c4cccn4[B-]3(F)F)C(C)=C2)c1O [BDNCA-275] ?
Given back: 585

----------
assay-remarks: Spectroscopic measurements (absorption, emission, quantum yield, extinction coefficient)
Type: physicochemical
settings: extinction coefficient, BDNCA library; in M-1 cm-1 (unit assumed)
Could you please report measured ε for the items listed next?

Asked: Fill in: ε of COc1ccc(/C=C/C2=[N+]3C(=C(c4ccc(NC(=O)CCl)cc4)c4cccn4[B-]3(F)F)C(C)=C2)c(OC)c1C [BDNCA-347] is ___
Given back: 34,874

Asked: So what's the measured ε for this one? CCOc1cc(/C=C/C2=[N+]3C(=C(c4ccc(NC(=O)CCl)cc4)c4cccn4[B-]3(F)F)C(C)=C2)ccc1O [BDNCA-397]
Given back: 38,444

Asked: So what's the measured ε for this one? CC1=CC(/C=C/c2cc3ccccc3o2)=[N+]2C1=C(c1ccc(NC(=O)CCl)cc1)c1cccn1[B-]2(F)F [BDNCA-368]
Given back: 21,968

Asked: Entry CC1=CC(/C=C/c2cccc(Oc3ccc(C(C)(C)C)cc3)c2)=[N+]2C1=C(c1ccc(NC(=O)CCl)cc1)c1cccn1[B-]2(F)F [BDNCA-435] : reported ε = ?
Given back: 61,510

----------
assay-remarks: Spectroscopic measurements (absorption, emission, quantum yield, extinction coefficient)
Type: physicochemical
settings: BDNCA library, absorption
Hi there, I'd appreciate the recorded Abs for every entry that follows.
Provide the reading as a plain figure in nm.

Asked: // query Abs value for entry `CC1=CC(/C=C/c2ccc3c(c2)OCO3)=[N+]2C1=C(c1ccc(NC(=O)CCl)cc1)c1cccn1[B-]2(F)F`
Given back: 568

Asked: Name the reported Abs value associated with the compound `CC1=CC(/C=C/c2ccc(Cl)cc2)=[N+]2C1=C(c1ccc(NC(=O)CCl)cc1)c1cccn1[B-]2(F)F`
Given back: 557

Asked: Look at this compound and give its reported Abs. `CC1=CC(/C=C/c2ccccc2)=[N+]2C1=C(c1ccc(NC(=O)CCl)cc1)c1cccn1[B-]2(F)F`
Given back: 554

Asked: # query: Abs of entry `COc1ccc(-c2ccc(/C=C/C3=[N+]4C(=C(c5ccc(NC(=O)CCl)cc5)c5cccn5[B-]4(F)F)C(C)=C3)o2)cc1Cl`
Given back: 605

----------
assay-remarks: Spectroscopic measurements (absorption, emission, quantum yield, extinction coefficient)
Assay type: physicochemical
settings: absorption maximum, BDNCA library
readout-name: Abs

Asked: Sample `CC1=CC(/C=C/c2ccccc2I)=[N+]2C1=C(c1ccc(NC(=O)CCl)cc1)c1cccn1[B-]2(F)F` — what was its Abs?
Given back: 555 nm

Asked: Entry `CC1=CC(/C=C/c2cccc([N+](=O)[O-])c2O)=[N+]2C1=C(c1ccc(NC(=O)CCl)cc1)c1cccn1[B-]2(F)F` : reported Abs = ?
Given back: 655 nm

Asked: # get_value(readout='Abs', item= `CC1=CC(/C=C/c2cccc(C)c2C)=[N+]2C1=C(c1ccc(NC(=O)CCl)cc1)c1cccn1[B-]2(F)F` )
Given back: 556 nm

Asked: Suppose we examine the compound `COc1cc(O)c(/C=C/C2=[N+]3C(=C(c4ccc(NC(=O)CCl)cc4)c4cccn4[B-]3(F)F)C(C)=C2)c(OC)c1` ; what Abs value has been reported?
Given back: 579 nm

Asked: Could you share which Abs value was measured for `CCOc1c(/C=C/C2=[N+]3C(=C(c4ccc(NC(=O)CCl)cc4)c4cccn4[B-]3(F)F)C(C)=C2)cccc1OC` ?
Given back: 557 nm

Asked: Entry `CCOc1cccc(/C=C/C2=[N+]3C(=C(c4ccc(NC(=O)CCl)cc4)c4cccn4[B-]3(F)F)C(C)=C2)c1OCC` has what Abs?
Given back: 557 nm

Asked: Field request: Abs | item: `CC1=CC(/C=C/c2c3ccccc3c(C)c3ccccc23)=[N+]2C1=C(c1ccc(NC(=O)CCl)cc1)c1cccn1[B-]2(F)F`
Given back: 532 nm

Asked: Quick check: Abs of `CC1=CC(/C=C/c2ccc(C)cc2C)=[N+]2C1=C(c1ccc(NC(=O)CCl)cc1)c1cccn1[B-]2(F)F` ?
Given back: 507 nm

Asked: Could you share which Abs value was measured for `CCOc1ccccc1/C=C/c1cc(C)c2n1[B-](F)(F)[N+]1=CC=CC1=C2c1ccc(NC(=O)CCl)cc1` ?
Given back: 562 nm

Asked: Fill in the blank: the reported Abs of `CC1=CC(/C=C/c2c(C)nn(C)c2C)=[N+]2C1=C(c1ccc(NC(=O)CCl)cc1)c1cccn1[B-]2(F)F` is ____.
Given back: 567 nm

Asked: So what's the measured Abs for this one? `CC(=O)Oc1ccc(/C=C/c2cc(C)c3n2[B-](F)(F)[N+]2=CC=CC2=C3c2ccc(NC(=O)CCl)cc2)cc1`
Given back: 565 nm

Asked: What measured Abs goes with `CC1=CC(/C=C/c2ccc(-c3ccccc3)c(F)c2)=[N+]2C1=C(c1ccc(NC(=O)CCl)cc1)c1cccn1[B-]2(F)F` ?
Given back: 562 nm

Asked: Please look up its Abs: `CC1=CC(/C=C/c2cc3ccccc3o2)=[N+]2C1=C(c1ccc(NC(=O)CCl)cc1)c1cccn1[B-]2(F)F`
Given back: 578 nm

Asked: # lookup: Abs of `COc1ccc(/C=C/c2cc(C)c3n2[B-](F)(F)[N+]2=CC=CC2=C3c2ccc(NC(=O)CCl)cc2)c(Cl)c1OC`
Given back: 565 nm

Asked: I am curious: what Abs value has been reported for `CC1=CC(/C=C/c2ccc(Cl)c(F)c2)=[N+]2C1=C(c1ccc(NC(=O)CCl)cc1)c1cccn1[B-]2(F)F` ?
Given back: 556 nm

Asked: Bench note: what Abs did `CC1=CC(/C=C/c2ccccc2OC(F)(F)F)=[N+]2C1=C(c1ccc(NC(=O)CCl)cc1)c1cccn1[B-]2(F)F` show?
Given back: 553 nm

Asked: Which value of Abs has been reported for `CC1=CC(/C=C/c2cccc(Oc3ccc(C(C)(C)C)cc3)c2)=[N+]2C1=C(c1ccc(NC(=O)CCl)cc1)c1cccn1[B-]2(F)F` in the records?
Given back: 556 nm

Asked: Need Abs of `CCOc1ccc(/C=C/C2=[N+]3C(=C(c4ccc(NC(=O)CCl)cc4)c4cccn4[B-]3(F)F)C(C)=C2)cc1` , thanks.
Given back: 566 nm

Asked: Look up Abs: `COc1cccc(/C=C/C2=[N+]3C(=C(c4ccc(NC(=O)CCl)cc4)c4cccn4[B-]3(F)F)C(C)=C2)c1F`
Given back: 554 nm
